system-name: mutant HIV PR (Mutant 9) (Human immunodeficiency virus type 1 group M subtype B)
assay-remarks: HIV PR inhibition assay, Mutant 9
Type: biochemical
condition: read-out: Ki Mutant 9; recombinant mutant HIV PR, fluorogenic substrate, pH 6.5
Below, each of the molecules is paired with its reported Ki value.
measurement-name: Ki

INSERT INTO results (molecule, system_name, result) VALUES
  ('C=CCN(C=C1C(=O)Nc2ccc(S(=O)(=O)N(CC(C)C)CC(O)C(Cc3ccccc3)NC(=O)OC3COC4OCCC34)cc21)C1CCCC1 (stereo not drawn)', 'mutant HIV PR (Mutant 9) (Human immunodeficiency virus type 1 group M subtype B)', '< 0.1 nM'),
  ('CNC(C)=C1C(=O)Nc2ccc(S(=O)(=O)N(CC(C)C)CC(O)C(Cc3ccccc3)NC(=O)OC3COC4OCCC34)cc21 (stereo not drawn)', 'mutant HIV PR (Mutant 9) (Human immunodeficiency virus type 1 group M subtype B)', '< 0.1 nM'),
  ('CC(C)CN(CC(O)C(Cc1ccccc1)NC(=O)OC1COC2OCCC12)S(=O)(=O)c1ccc2c(c1)C(=CNCCCCc1ccccc1)C(=O)N2 (stereo not drawn)', 'mutant HIV PR (Mutant 9) (Human immunodeficiency virus type 1 group M subtype B)', '< 0.1 nM');

---

system-name: mutant HIV PR (Mutant 9) (Human immunodeficiency virus type 1 group M subtype B)
assay-remarks: HIV PR inhibition assay, Mutant 9
condition: read-out: Ki Mutant 9; recombinant mutant HIV PR, fluorogenic substrate, pH 6.5
Overview of reported Ki across a group of compounds:
measurement-name: Ki

INSERT INTO results (compound, system_name, result) VALUES
  ('CCCCN(C=C1C(=O)Nc2ccc(S(=O)(=O)N(CC(C)C)CC(O)C(Cc3ccccc3)NC(=O)OC3COC4OCCC34)cc21)CC (stereo not shown)', 'mutant HIV PR (Mutant 9) (Human immunodeficiency virus type 1 group M subtype B)', '< 0.1 nM'),
  ('CCCN(C=C1C(=O)Nc2ccc(S(=O)(=O)N(CC(C)C)CC(O)C(Cc3ccccc3)NC(=O)OC3COC4OCCC34)cc21)CC (stereo not shown)', 'mutant HIV PR (Mutant 9) (Human immunodeficiency virus type 1 group M subtype B)', '< 0.1 nM'),
  ('CC(C)CN(CC(O)C(Cc1ccccc1)NC(=O)OC1COC2OCCC12)S(=O)(=O)c1ccc2c(c1)C(=CNCCc1ccccn1)C(=O)N2 (stereo not shown)', 'mutant HIV PR (Mutant 9) (Human immunodeficiency virus type 1 group M subtype B)', '< 0.1 nM'),
  ('CC(C)CN(CC(O)C(Cc1ccccc1)NC(=O)OC1COC2OCCC12)S(=O)(=O)c1ccc2c(c1)C(=CNCC1CCCCC1)C(=O)N2 (stereo not shown)', 'mutant HIV PR (Mutant 9) (Human immunodeficiency virus type 1 group M subtype B)', '< 0.1 nM'),
  ('CC(C)CN(CC(O)C(Cc1ccccc1)NC(=O)OC1COC2OCCC12)S(=O)(=O)c1ccc2c(c1)C(=CNCc1ccc3ccccc3n1)C(=O)N2 (stereo not shown)', 'mutant HIV PR (Mutant 9) (Human immunodeficiency virus type 1 group M subtype B)', '< 0.1 nM'),
  ('CCCC(C)NC=C1C(=O)Nc2ccc(S(=O)(=O)N(CC(C)C)CC(O)C(Cc3ccccc3)NC(=O)OC3COC4OCCC34)cc21 (stereo not shown)', 'mutant HIV PR (Mutant 9) (Human immunodeficiency virus type 1 group M subtype B)', '< 0.1 nM'),
  ('CCc1cccc(NC=C2C(=O)Nc3ccc(S(=O)(=O)N(CC(C)C)CC(O)C(Cc4ccccc4)NC(=O)OC4COC5OCCC45)cc32)n1 (stereo not shown)', 'mutant HIV PR (Mutant 9) (Human immunodeficiency virus type 1 group M subtype B)', '0.17 nM'),
  ('CC(C)CN(C[C@@H](O)[C@H](Cc1ccccc1)NC(=O)O[C@H]1CO[C@H]2OCC[C@H]21)S(=O)(=O)c1ccc2c(c1)/C(=C/N(C)C)C(=O)N2', 'mutant HIV PR (Mutant 9) (Human immunodeficiency virus type 1 group M subtype B)', '< 0.1 nM'),
  ('CC(C)CN(CC(O)C(Cc1ccccc1)NC(=O)OC1COC2OCCC12)S(=O)(=O)c1ccc2c(c1)C(=CNC1CCC1)C(=O)N2 (stereo not shown)', 'mutant HIV PR (Mutant 9) (Human immunodeficiency virus type 1 group M subtype B)', '0.15 nM'),
  ('CC(C)CN(CC(O)C(Cc1ccccc1)NC(=O)OC1COC2OCCC12)S(=O)(=O)c1ccc2c(c1)C(=CNC1CCCCC1)C(=O)N2 (stereo not shown)', 'mutant HIV PR (Mutant 9) (Human immunodeficiency virus type 1 group M subtype B)', '0.21 nM'),
  ('CC(C)CN(C[C@@H](O)[C@H](Cc1ccccc1)NC(=O)O[C@H]1CO[C@H]2OCC[C@H]21)S(=O)(=O)c1ccc2c(c1)/C(=C/NCC(C)(C)C)C(=O)N2', 'mutant HIV PR (Mutant 9) (Human immunodeficiency virus type 1 group M subtype B)', '0.15 nM'),
  ('CC(C)CN(CC(O)C(Cc1ccccc1)NC(=O)OC1COC2OCCC12)S(=O)(=O)c1ccc2c(c1)C(=CNCC(F)(F)C(F)(F)C(F)(F)F)C(=O)N2 (stereo not shown)', 'mutant HIV PR (Mutant 9) (Human immunodeficiency virus type 1 group M subtype B)', '0.17 nM'),
  ('CCCN(C=C1C(=O)Nc2ccc(S(=O)(=O)N(CC(C)C)CC(O)C(Cc3ccccc3)NC(=O)OC3COC4OCCC34)cc21)CCC (stereo not shown)', 'mutant HIV PR (Mutant 9) (Human immunodeficiency virus type 1 group M subtype B)', '< 0.1 nM'),
  ('CC(C)CCNC=C1C(=O)Nc2ccc(S(=O)(=O)N(CC(C)C)CC(O)C(Cc3ccccc3)NC(=O)OC3COC4OCCC34)cc21 (stereo not shown)', 'mutant HIV PR (Mutant 9) (Human immunodeficiency virus type 1 group M subtype B)', '< 0.1 nM'),
  ('CC(NCC(F)(F)F)=C1C(=O)Nc2ccc(S(=O)(=O)N(CC(C)C)CC(O)C(Cc3ccccc3)NC(=O)OC3COC4OCCC34)cc21 (stereo not shown)', 'mutant HIV PR (Mutant 9) (Human immunodeficiency virus type 1 group M subtype B)', '< 0.1 nM'),
  ('CCNC(C)=C1C(=O)Nc2ccc(S(=O)(=O)N(CC(C)C)CC(O)C(Cc3ccccc3)NC(=O)OC3COC4OCCC34)cc21 (stereo not shown)', 'mutant HIV PR (Mutant 9) (Human immunodeficiency virus type 1 group M subtype B)', '< 0.1 nM');

---

Test system: HIVmutant10 (16 mutations)
assay-remarks: Antiviral assay in MT-4 cells (MTT), mutant 10 virus
Format: cell-based, HIV
condition: Human immunodeficiency virus 1, MT4, 120 h, read-out: IC50 Mutant 10
pIC50: −log10 of the molar value.
Below, each entry is listed with its recorded pIC50.
measurement-name: pIC50

INSERT INTO assay_data (compound, numeric_result) VALUES
  ('CCOC(=O)CN(C=C1C(=O)Nc2ccc(S(=O)(=O)N(CC(C)C)CC(O)C(Cc3ccccc3)NC(=O)OC3COC4OCCC34)cc21)Cc1ccccc1 (stereo not drawn) [Compound 138]', 7.80),
  ('CC(C)CN(C=C1C(=O)Nc2ccc(S(=O)(=O)N(CC(C)C)CC(O)C(Cc3ccccc3)NC(=O)OC3COC4OCCC34)cc21)CC(C)C (stereo not drawn) [Compound 113]', 7.05),
  ('CCCN(C=C1C(=O)Nc2ccc(S(=O)(=O)N(CC(C)C)CC(O)C(Cc3ccccc3)NC(=O)OC3COC4OCCC34)cc21)CCC (stereo not drawn) [Compound 32]', 7.24),
  ('CC(C)CN(CC(O)C(Cc1ccccc1)NC(=O)OC1COC2OCCC12)S(=O)(=O)c1ccc2c(c1)C(=CNCC(F)(F)C(F)(F)C(F)(F)F)C(=O)N2 (stereo not drawn) [Compound 125]', 7.41),
  ('CC(C)CN(CC(O)C(Cc1ccccc1)NC(=O)OC1COC2OCCC12)S(=O)(=O)c1ccc2c(c1)C(=CNCC1CC1)C(=O)N2 (stereo not drawn) [Compound 101]', 7.26),
  ('CCCCNC=C1C(=O)Nc2ccc(S(=O)(=O)N(CC(C)C)CC(O)C(Cc3ccccc3)NC(=O)OC3COC4OCCC34)cc21 (stereo not drawn) [Compound 57]', 7.40),
  ('CC(NCC(F)(F)F)=C1C(=O)Nc2ccc(S(=O)(=O)N(CC(C)C)CC(O)C(Cc3ccccc3)NC(=O)OC3COC4OCCC34)cc21 (stereo not drawn) [Compound 45]', 7.28),
  ('CCc1cccc(NC=C2C(=O)Nc3ccc(S(=O)(=O)N(CC(C)C)CC(O)C(Cc4ccccc4)NC(=O)OC4COC5OCCC45)cc32)n1 (stereo not drawn) [Compound 112]', 6.70),
  ('CCOC(=O)C(NC=C1C(=O)Nc2ccc(S(=O)(=O)N(CC(C)C)CC(O)C(Cc3ccccc3)NC(=O)OC3COC4OCCC34)cc21)C(C)C (stereo not drawn) [Compound 133]', 7.57),
  ('CNC(C)=C1C(=O)Nc2ccc(S(=O)(=O)N(CC(C)C)CC(O)C(Cc3ccccc3)NC(=O)OC3COC4OCCC34)cc21 (stereo not drawn) [Compound 41]', 7.25),
  ('CC(C)CCNC=C1C(=O)Nc2ccc(S(=O)(=O)N(CC(C)C)CC(O)C(Cc3ccccc3)NC(=O)OC3COC4OCCC34)cc21 (stereo not drawn) [Compound 66]', 7.41),
  ('C=CCN(C=C1C(=O)Nc2ccc(S(=O)(=O)N(CC(C)C)CC(O)C(Cc3ccccc3)NC(=O)OC3COC4OCCC34)cc21)C1CCCC1 (stereo not drawn) [Compound 116]', 6.82),
  ('CC(C)CC(C)NC=C1C(=O)Nc2ccc(S(=O)(=O)N(CC(C)C)CC(O)C(Cc3ccccc3)NC(=O)OC3COC4OCCC34)cc21 (stereo not drawn) [Compound 104]', 7.13),
  ('CCNC(C)=C1C(=O)Nc2ccc(S(=O)(=O)N(CC(C)C)CC(O)C(Cc3ccccc3)NC(=O)OC3COC4OCCC34)cc21 (stereo not drawn) [Compound 43]', 7.19),
  ('CCCC(C)NC=C1C(=O)Nc2ccc(S(=O)(=O)N(CC(C)C)CC(O)C(Cc3ccccc3)NC(=O)OC3COC4OCCC34)cc21 (stereo not drawn) [Compound 108]', 7.10);

Origin of measurements: patent US7807845B2
